B1: DLC1 (parent)
chain: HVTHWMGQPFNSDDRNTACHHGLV

# Variants of: B1
# EXPERIMENT_NOTES: protein stability index of a GFP-peptide fusion (GPS, HEK-293T) (PSI 1-6); higher = more stable;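 further: lentivirally expressed fusions sorted by FACS into six bins by GFP to DsRed ratio, PSI derived from sequencing read proportions per bin multiplied by bin number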
# SETTINGS: c terminus: a fixed tail appended
READOUT: protein stability index

> print(dat)
    variant.string                  readout  reported.measurement
 1             H4N  protein stability index                  2.11
 2            F10I  protein stability index                  2.04
 3             Q8C  protein stability index                  2.14
 4             W5F  protein stability index                  2.72
 5             V2A  protein stability index                   2.8
 6            F10Y  protein stability index                  1.92
 7            G22R  protein stability index                  2.13
 8             H1R  protein stability index                  2.31
 9            F10T  protein stability index                  2.29
10            D13C  protein stability index                   1.8
11             M6W  protein stability index                  2.15
